B1: VH:VL chains; a variant is named by its letters at X, in order (parent)
chain 1: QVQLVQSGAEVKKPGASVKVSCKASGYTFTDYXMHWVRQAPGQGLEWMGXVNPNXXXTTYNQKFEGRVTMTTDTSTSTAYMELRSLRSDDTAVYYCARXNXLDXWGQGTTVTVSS
chain 2: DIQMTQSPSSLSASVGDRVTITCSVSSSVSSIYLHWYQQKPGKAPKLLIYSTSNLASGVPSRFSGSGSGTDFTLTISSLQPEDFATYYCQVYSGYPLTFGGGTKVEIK

Variants of: B1
test_protocol: yeast display scFab, FACS + sequencing
condition_info: with MET
The other results are listed elsewhere or left out. The true hit rate is not given.
assay_endpoint: antigen binding call

Use these answered entries as a reference point.
change | assay_endpoint | result
SEEEGDWV | antigen binding call | no binding
VRGKGSSD | antigen binding call | binds
VEGGGSSS | antigen binding call | no binding
DAGGADWA | antigen binding call | no binding
VEEEGSVD | antigen binding call | no binding

Problem: Please give measured antigen binding call of the following entry: SETGADVA
Solution: no binding

Problem: Please give measured antigen binding call of the following entry: FEKEGDAA
Solution: no binding

Problem: Please give measured antigen binding call of the following entry: VRAGDDSD
Solution: no binding

Problem: Please give measured antigen binding call of the following entry: VRGEGSWD
Solution: binds

Problem: Please give measured antigen binding call of the following entry: AETGASLS
Solution: no binding

Problem: Please give measured antigen binding call of the following entry: DGTGGSGA chain 1 R67H
Solution: no binding

Problem: Please give measured antigen binding call of the following entry: YKREGSAV
Solution: no binding

Problem: Please give measured antigen binding call of the following entry: FTKASYVY
Solution: no binding
